Each entry below lists one item and its recorded pIC50 value.
- test_system: Human CGRP1 Receptor (Homo sapiens, UniProt O60894+Q16602)
- Construct: endogenous in cells; host or cells: SK-N-MC cells (membrane homogenate)
- Sequence (Q16602 23-461): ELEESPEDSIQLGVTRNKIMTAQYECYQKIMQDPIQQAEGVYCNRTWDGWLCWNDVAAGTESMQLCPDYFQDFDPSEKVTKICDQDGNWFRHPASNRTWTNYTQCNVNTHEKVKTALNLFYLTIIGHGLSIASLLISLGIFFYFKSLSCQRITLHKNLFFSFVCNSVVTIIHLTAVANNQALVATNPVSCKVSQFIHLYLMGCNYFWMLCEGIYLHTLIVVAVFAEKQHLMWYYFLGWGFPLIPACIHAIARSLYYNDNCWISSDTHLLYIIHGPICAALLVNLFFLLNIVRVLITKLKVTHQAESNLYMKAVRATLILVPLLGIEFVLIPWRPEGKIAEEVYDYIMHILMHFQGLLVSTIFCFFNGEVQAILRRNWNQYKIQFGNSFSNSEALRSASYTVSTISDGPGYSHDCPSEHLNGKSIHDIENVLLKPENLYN
- Sequence (O60894 27-148): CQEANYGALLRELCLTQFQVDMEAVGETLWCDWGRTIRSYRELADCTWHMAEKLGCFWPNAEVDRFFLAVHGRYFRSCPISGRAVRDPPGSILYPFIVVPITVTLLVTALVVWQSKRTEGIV
- assay_comment: CGRP Binding Assay ([125I]-CGRP radioligand displacement, SK-N-MC membrane homogenate)
- run_conditions: [125I]-CGRP displacement, SK-N-MC homogenate, room temperature 2 h; read-out: Human CGRP1 Receptor IC50
- Procedure: Tissue Culture. SK-N-MC cells were grown at 37° C. in 5% CO2 as a monolayer in medium consisting of MEM with Earle's salts and L-glutamine (Gibco) supplemented with 10% fetal bovine serum (Gibco). Cell Pellets. […] The cells were transferred from plates to polypropylene tubes (16×100 mm) and homogenized using a polytron. Homogenates were centrifuged at 32,000×g for 30 min. […] Radioligand Binding Assay. […] Protein bound radioactivity was determined using a gamma or scintillation counter.
pIC50: −log10 of the molar value.

Look over these answered cases.
[[record]]
compound = "Cc1cc(CC(NC(=O)N2CCC(N3Cc4cccc(F)c4NC3=O)CC2)c2nnn[nH]2)cc2cn[nH]c12 (racemic) [Example 80]"
observed_result = "6.00 to 7.00"

[[record]]
compound = "Cc1cc(CC(NC(=O)N2CCC(N3Cc4ccccc4NC3=O)CC2)c2nccn2Cc2ccccn2)cc2cn[nH]c12 (racemic) [Example 92]"
observed_result = "> 8.00"

[[record]]
compound = "Cc1cc(CC(CC(=O)N2CCC(N3Cc4cccc(F)c4NC3=O)CC2)c2ccccn2)cc2cn[nH]c12 (racemic) [Example 23]"
observed_result = "7.00 to 8.00"

[[record]]
compound = "Cc1cc(CC(OC(=O)N2CCC(N3Cc4ccccc4NC3=O)CC2)c2cccc(OC(C)(C)C)n2)cc2cn[nH]c12 (racemic) [Example 41]"
observed_result = "6.00 to 7.00"

[[record]]
compound = "Cc1cc(CC(NC(=O)N2CCC(N3Cc4ccccc4NC3=O)CC2)c2nccn2-c2ccccc2[N+](=O)[O-])cc2cn[nH]c12 (racemic) [Example 79]"
observed_result = "> 8.00"


For the compound shown here, Cc1cc(CC(NC(=O)N2CCC(N3Cc4ccccc4NC3=O)CC2)c2nccn2Cc2cccc(C(N)=O)c2)cc2cn[nH]c12 (racemic) [Example 77] , give the reported pIC50.
> 8.00

For the compound shown here, Cc1cc(CC(OC(=O)N2CCC(N3Cc4cccc(F)c4NC3=O)CC2)c2cccc(CC(C)C)n2)cc2cn[nH]c12 (racemic) [Example 43] , give the reported pIC50.
7.00 to 8.00
